Target: Luciferin 4-monooxygenase (Photinus pyralis)
Assay: Primary firefly luciferase (FLuc) qHTS assay for identification of artifact compounds. (AID 1845220);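 also: plate controls were DMSO vehicle for no effect and no enzyme for full effect; nearly all actives have a fitted effect of over 60% in size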
Details: purified firefly luciferase, luminescence, 5 min; series mostly up to 54.1 µM
Activity calls are given as the source filed them. Calls follow the shape of the dose curve; as a rule, active = well fitted inhibition curve with a large enough effect; inconclusive = small, poorly fitted or top-dose-only effect; inactive = flat fitted curve, though single readings scatter. Where a SMILES comes first, the peptide text is derived from it. The star is where a group is joined. Cbz = O=C(OCc1ccccc1)*; CH2F = FC*
readout_type: activity change, negative = inhibition

As a guide, the following entries are already answered.
[[record]]
compound = "CC(CCO)CCC1C2(C)CCCC(C)(C)C2CC[C@@]1(C)O (stereo partly drawn)"
readout_value = "inactive"

[[record]]
compound = "CC1(CO)CCCC2(C)C3COC(=O)C3=CC(O)C12 (stereo not drawn)"
readout_value = "inactive"

[[record]]
compound = "COC(=O)CC[C@H](NC(=O)[C@H](CC(C)C)NC(=O)OCc1ccccc1)C(=O)N[C@@H](Cc1cnc[nH]1)C(=O)N[C@@H](CC(=O)OC)C(=O)CF (Cbz-LE(OMe)HD(OMe)-CH2F)"
readout_value = "1.89% [at 11.6 µM] (inactive)"

[[record]]
compound = "COc1cc(/C=C/C(=O)O[C@H]2C[C@@H]3C(C(=O)O)=CO[C@@H](O[C@@H]4O[C@H](CO)[C@@H](O)[C@H](O)[C@H]4O)[C@@H]3[C@H]2C)ccc1O"
readout_value = "inactive"

[[record]]
compound = "C=C(C)C1Cc2c(ccc3c2OCC(c2ccc(O)cc2O)C3)O1 (stereo not drawn)"
readout_value = "inactive"


Recorded activity change, negative = inhibition (compound CC(C)c1c(NC(=O)Nc2ccc(Cl)cc2)c(=O)n(-c2ccccc2)n1C ): inactive

Recorded activity change, negative = inhibition (compound COC(=O)C1C(c2ccc(O)cc2)C(C(=O)O)C1c1ccc(O)cc1 (stereo not drawn) ): inactive

Recorded activity change, negative = inhibition (compound O=C(/C=C/c1ccc(O)cc1)OC[C@H]1O[C@@H](O/C(=C\c2ccccc2)C(=O)O)[C@H](O)[C@@H](O)[C@@H]1O ): inactive

Values were extracted from PubChem BioAssay (NCATS).
